Listing of entries alongside the reported growth inhibition.
- measurement-notes: NCI Yeast Anticancer Drug Screen. Data for the sgs1 mgt1 strain (AID 161);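 further: 0% = growth of cultures given vehicle only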
- condition-parameters: S. cerevisiae sgs1 mgt1 strain, at 50.0 µM (retest, dose inferred, filed as 5.0), hits give high values
- Method: Growth inhibition of yeast strains with defined genetic alterations is measured as a screen for potential anti-cancer activity. Selected strains with alterations in DNA damage repair or cell cycle control were exposed to compounds and growth inhibition was measured relative to vehicle treated controls. The strain used in this assay is sgs1 mgt1
The panel holds about 79,000 compounds, 15% with a hit somewhere; the sample as a whole holds those more often.
readout-type: growth inhibition (%)

compound	reported-result
[Hg][c]1ccccc1	52
Oc1c(I)cc(I)cc1I	53
COc1cc(C2c3cc4c(cc3OC(N3CCOCC3)C2C)OCO4)cc(OC)c1OC (configuration not stated)	-10
CC(C)=CCC/C(C)=C/CC/C(C)=C/Cc1c(O)c2ccccc2oc1=O	95
Clc1ccc2c(c1)C(c1ccccc1Cl)=NCC(SCCN1CCOCC1)=N2	98
CC12CCC3C(CCC4Cc5nc6nnnn6cc5CC43C)C1CCC2O (configuration not stated)	85
O=c1c2ccccc2[nH]c(=S)n1-c1cccc(C(F)(F)F)c1	59

Source: PubChem BioAssay (NCI)
